Catalogue of Population Normal (%) readings, one per entry.
tested on: HEK-293T; assay: Multiplex assay against HEK293T; type: toxicity, cell-based; conditions: human, 24 h, 1 µM, compound concentration 1 uM, replicate 1
Quantity measured: Population Normal (%)

Compound	Observed value
O=C(NCC(=O)N1CC[C@H](N[C@H]2CC[C@@](O)(c3ccc(-c4ncccn4)cn3)CC2)C1)c1cccc(C(F)(F)F)c1	97%
Cc1ccc(C(C)(O)c2nc3ccccc3s2)c(C)c1 (centres undefined)	96%
CC(=O)NCCc1c(Cc2ccccc2)[nH]c2ccccc12	92%
CCOc1c2c(c(OCC)c3ncccc13)CN(c1ccc(CS(=O)(=O)NC(=O)Cc3ccccc3OC)cc1C)C2=O	94%
CCCC(CCC)C(=O)O	95%
CCNC1(C(N)=O)CCN(c2ncnc3c2nc(-c2ccccc2Cl)n3-c2ccc(Cl)cc2)CC1	94%
Oc1c(CN2CCN(c3ccccn3)CC2)cc(Cl)c2cccnc12	96%
CCCN1CCC[C@@H]2Cc3n[nH]cc3C[C@H]21.Cl [QUINPIROLE HYDROCHLORIDE]	96%
CN1CCN2c3ncccc3Cc3ccccc3C2C1 (centres undefined)	97%

###

test system: U2OS; assay: Multiplex assay against U2OS; format: toxicity, cell-based; conditions: human, 24 h, 1 µM, compound concentration 1 uM, replicate 2
Recorded Population Normal (%), one value per entry.

Compound	Population Normal (%)
CC(=O)NCCc1c(Cc2ccccc2)[nH]c2ccccc12	99
COc1ccc2c(c1)C(C(=O)N(Cc1ccc(N(C)C)cc1)c1ccc(C(C)C)cc1)CCC2.Cl (stereo not drawn)	97
CC(C)(C)c1ccc(S(=O)(=O)Nc2ccc(Cl)cc2C(=O)c2cc[n+]([O-])cc2)cc1	99
Cc1ccc(-c2ccc(F)cc2COc2ccc(CCC(=O)O)cc2)cc1	98
CCNC1(C(N)=O)CCN(c2ncnc3c2nc(-c2ccccc2Cl)n3-c2ccc(Cl)cc2)CC1	95
Cc1ccc(F)cc1C(=O)Nc1ccc(C(=O)N2Cc3cccn3Cc3ccccc32)c(Cl)c1	95
COc1c(C)cc(NC(=O)c2nn(Cc3ccc(F)cc3)c3c2CN(C(=O)c2ccc[nH]2)C[C@]3(C)C(N)=O)cc1C	99
Cc1nc2ccc(Oc3ccc(F)cc3)cc2c(=O)n1C[C@H]1CCCN(C(C)C)C1.Cl	97
CCCn1c(=O)c2[nH]c(C3CCCC3)nc2n(CCC)c1=O	97
CN1CCN(c2nc3cc(C(F)(F)F)ccc3n3cccc23)CC1.O=C(O)/C=C\C(=O)O.O=C(O)/C=C\C(=O)O	99
N[C@@]1(C(=O)O)CO[C@H]2[C@H](C(=O)O)[C@H]21	100
Cl.Clc1ccc2nsnc2c1NC1=NCCN1 [TIZANIDINE HYDROCHLORIDE]	95
Cc1ccccc1C(=O)Nc1ccc(C(=O)N2CCCC(N(C)C)c3ccccc32)cc1.Cl (stereo not drawn)	98
C[C@H](NC(=O)c1c(C(F)F)nn(C)c1Oc1cccc(C(F)(F)F)c1)c1ccc(C(=O)O)cc1	98
O=C1COc2nccc(-c3ccccc3F)c2CN1Cc1cc(C(F)(F)F)cc(C(F)(F)F)c1	95
CCOc1c2c(c(OCC)c3ncccc13)CN(c1ccc(CS(=O)(=O)NC(=O)Cc3ccccc3OC)cc1C)C2=O	98
Cc1ccc(C(C)(O)c2nc3ccccc3s2)c(C)c1 (stereo not drawn)	99
Cc1ccc(/C(=C\CN2CCCC2)c2ccccn2)cc1	96
